- protocol-text: Single-dose mean plasma concentration profile of […] XR 20 mg (FIG. 1)
- Type: in vivo
- conditions-used: human, oral, […] XR 20 mg single dose, mean over about 20 patients
property-label: Tmax

Given the entry C[C@H](N)Cc1ccccc1 , report its measured Tmax.
7.1 h

---

- protocol-text: Single-dose mean plasma concentration profile of […] XR 20 mg (FIG. 1)
- Assay type: in vivo
- conditions-used: human, oral, […] XR 20 mg single dose, mean over about 20 patients
property-label: Cmax (ng/mL)
Kindly provide the numeric value in ng/mL only, without the unit symbol.

Given the entry C[C@H](N)Cc1ccccc1 , report its measured Cmax.
28
